# target_or_system: IGF-1R(h) (Homo sapiens)
# Sequence (P08069 31-1367): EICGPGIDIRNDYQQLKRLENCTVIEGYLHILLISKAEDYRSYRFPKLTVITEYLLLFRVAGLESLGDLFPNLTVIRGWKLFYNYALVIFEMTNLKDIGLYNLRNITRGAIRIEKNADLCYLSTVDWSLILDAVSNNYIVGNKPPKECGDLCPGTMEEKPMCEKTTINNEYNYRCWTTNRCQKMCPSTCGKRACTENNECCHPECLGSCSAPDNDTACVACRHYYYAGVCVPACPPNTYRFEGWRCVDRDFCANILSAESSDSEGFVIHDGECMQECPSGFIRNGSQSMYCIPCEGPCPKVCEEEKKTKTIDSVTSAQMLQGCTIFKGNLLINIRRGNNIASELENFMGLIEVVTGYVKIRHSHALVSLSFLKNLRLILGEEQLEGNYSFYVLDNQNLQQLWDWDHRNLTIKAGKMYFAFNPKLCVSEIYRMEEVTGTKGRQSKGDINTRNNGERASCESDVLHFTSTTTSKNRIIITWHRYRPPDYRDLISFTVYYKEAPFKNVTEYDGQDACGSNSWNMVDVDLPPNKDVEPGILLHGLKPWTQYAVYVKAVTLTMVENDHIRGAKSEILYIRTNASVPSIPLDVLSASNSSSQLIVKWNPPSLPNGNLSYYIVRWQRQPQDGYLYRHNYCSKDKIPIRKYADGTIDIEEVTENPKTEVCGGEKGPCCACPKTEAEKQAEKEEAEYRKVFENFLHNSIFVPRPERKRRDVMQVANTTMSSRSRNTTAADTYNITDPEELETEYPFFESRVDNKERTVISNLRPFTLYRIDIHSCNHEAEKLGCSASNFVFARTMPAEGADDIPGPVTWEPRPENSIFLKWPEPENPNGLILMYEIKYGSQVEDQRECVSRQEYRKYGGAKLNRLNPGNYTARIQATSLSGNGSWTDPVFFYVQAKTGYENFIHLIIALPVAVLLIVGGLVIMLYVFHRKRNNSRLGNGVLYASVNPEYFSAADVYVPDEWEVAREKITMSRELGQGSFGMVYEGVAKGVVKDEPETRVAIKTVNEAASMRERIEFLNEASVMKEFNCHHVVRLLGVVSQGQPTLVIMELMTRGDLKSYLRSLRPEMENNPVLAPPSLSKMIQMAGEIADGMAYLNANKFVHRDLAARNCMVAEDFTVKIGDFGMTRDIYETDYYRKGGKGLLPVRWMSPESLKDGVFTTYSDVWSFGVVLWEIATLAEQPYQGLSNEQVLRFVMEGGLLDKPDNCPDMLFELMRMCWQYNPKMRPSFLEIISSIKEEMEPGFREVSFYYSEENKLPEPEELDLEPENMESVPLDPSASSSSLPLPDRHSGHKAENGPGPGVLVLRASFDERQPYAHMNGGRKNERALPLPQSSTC
# protocol_text: IGF-1R(h) kinase assay
# Assay type: biochemical
# experimental_conditions: 3 μM; percent of control kinase activity
Overview of reported Inhibitory activity (% of control), IGF-1R(h) across a group of compounds:

Worked cases, answers included:
[[record]]
compound = "O=C(NC1CCCC1)c1cccc(-c2n[nH]c3ccc(-c4nc[nH]n4)cc23)c1 [CC007, reference compound]"
value_reported = "88 % of control"

[[record]]
compound = "CC(C)(C)Cc1nc(-c2ccc3[nH]nc(-c4ccc5cc(OCc6ccccn6)ccc5c4)c3c2)n[nH]1 [CC004]"
value_reported = "96 % of control"

[[record]]
compound = "Fc1ccc(-c2n[nH]c3ccc(-c4n[nH]c(C5CCCC5)n4)cc23)cc1 [CC006, reference compound]"
value_reported = "65 % of control"

[[record]]
compound = "CCN1CCC[C@H]1COc1ccc2cc(-c3n[nH]c4ccc(-c5nc(CC(C)(C)C)n[nH]5)cc34)ccc2c1 [CC005]"
value_reported = "58 % of control"

[[record]]
compound = "COc1ccc2cc(-c3n[nH]c4ccc(-c5n[nH]c(CN6CCOCC6)n5)cc34)ccc2c1 [CC001]"
value_reported = "92 % of control"


Would you kindly look at the next entry?
Which Inhibitory activity (% of control), IGF-1R(h) value belongs to CC(C)Cc1nc(-c2ccc3[nH]nc(-c4ccc5cc(OCCN6CCCC6)ccc5c4)c3c2)n[nH]1 [CC002] ?
55 % of control

Hello, the source for this data is patent US20050107386A1, in case you need it.
